# Species: Rattus norvegicus
# Assay Method Text: Unbound clearance in Sprague-Dawley rat at 5 ug/ml by equilibrium dialysis method
# Type: ADME, organism-based
# Measurement Conditions: in vivo
The entries below are paired with their reported CL free.
Dear colleague, please return just the value in mL/min/kg, with no unit written.

Below, each entry is followed by its recorded CL free result.
> print(dat)
                                smiles.data  readout.number
1  COCCOc1cnc2ccn([C@H](C)c3nnc4c(F)cc(-c5cc(C)no5)cn34)c(=O)c2c1              40
2  COCCOc1cnc2ccn([C@H](C)c3nnc4ccc(-c5cc(C)no5)cn34)c(=O)c2c1              25

Next:
Ask | Please look up its CL free: COCCOc1cnc2ccc([C@H](C)n3nnc4ccn(-c5cc(C)ns5)c(=O)c43)cc2c1
Reply | 517

###

# Subject Of Test: Cytochrome P450 3A4 (Homo sapiens)
# Sequence (P08684 whole entry): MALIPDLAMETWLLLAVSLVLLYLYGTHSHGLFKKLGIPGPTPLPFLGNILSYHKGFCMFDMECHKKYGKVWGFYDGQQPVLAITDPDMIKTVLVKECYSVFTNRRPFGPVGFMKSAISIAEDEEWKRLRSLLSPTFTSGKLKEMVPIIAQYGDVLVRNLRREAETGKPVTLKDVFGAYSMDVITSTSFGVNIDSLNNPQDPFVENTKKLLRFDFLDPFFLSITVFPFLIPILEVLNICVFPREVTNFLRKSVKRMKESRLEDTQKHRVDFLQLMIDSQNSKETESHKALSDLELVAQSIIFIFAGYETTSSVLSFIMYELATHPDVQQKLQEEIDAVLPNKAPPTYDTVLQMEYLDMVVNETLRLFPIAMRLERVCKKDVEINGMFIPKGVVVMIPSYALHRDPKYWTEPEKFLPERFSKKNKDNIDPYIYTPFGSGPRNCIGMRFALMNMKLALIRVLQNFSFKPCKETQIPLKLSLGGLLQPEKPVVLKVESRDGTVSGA
# Assay Method Text: Inhibition of CYP3A4 (unknown origin) in presence of NADPH
# Format: ADME
Quantity: pIC50
# reply with the number alone; pIC50 is -log10 of concentration in mol/L

Ask | Using the record for COCCOc1cnc2ccc([C@H](C)n3nnc4ccn(-c5cc(C)ns5)c(=O)c43)cc2c1 , report its pIC50.
Reply | 4.68

###

The reader will find reported Vd values listed item by item below.
# Assay Method Text: Volume of distribution at steady state in iv dosed Beagle dog
# Assay type: ADME, organism-based, Canis lupus familiaris
# Measurement Conditions: in vivo, read-out: Vdss
Numeric answer only, unit L/kg assumed.

> print(dat)
                                smiles.data  readout.units  readout.number
1  COCCOc1cnc2ccn([C@H](C)c3nnc4ccc(-c5cc(C)no5)cn34)c(=O)c2c1           L/kg             1.4

In the following, a different molecule is considered.
Ask | Could you share which Vd value was measured for COCCOc1cnc2ccn([C@H](C)c3nnc4c(F)cc(-c5cnn(C)c5)cn34)c(=O)c2c1 ?
Reply | 1.1

###

# Assay Method Text: Solubility of compound in 0.01 N HCl
# Type: physicochemical
Quantity: solubility

> print(dat)
                                smiles.data       result
1  COc1cnc2c(NCc3nnc4ccc(-c5cc(C)ns5)nn34)ccnc2c1  > 200 µg/mL
2  COc1ccc2c(OCc3nnc4ccc(-c5cc(F)c(F)c(F)c5)nn34)ccnc2c1     85 µg/mL

Now examine the next entry.
Ask | Given the entry COCCOc1cnc2ccc([C@H](C)c3nnc4c(F)cc(-c5cc(C)no5)cn34)cc2c1 , report its measured solubility.
Reply | > 200 µg/mL

###

# Assay Method Text: Clearance in Sprague-Dawley rat at 0.25 mg/kg, iv
# Format: ADME, organism-based
# Measurement Conditions: in vivo
Quantity: clearance (mL/min/kg)
Respond with the bare value in mL/min/kg.

> print(dat)
                                smiles.data  readout.units  readout.number
1  COCCOc1cnc2ccn([C@H](C)c3nnc4c(F)cc(-c5cnn(C)c5)cn34)c(=O)c2c1      mL/min/kg             4.5
2  COCCOc1cnc2ccn([C@H](C)c3nnc4ccc(-c5cc(C)no5)cn34)c(=O)c2c1      mL/min/kg            4.83

Ask | # input compound: COCCOc1cnc2ccn([C@H](C)c3nnc4c(F)cc(-c5cc(C)no5)cn34)c(=O)c2c1 ; wanted: its clearance
Reply | 3.33

Ask | # lookup: clearance of COc1cnc2ccn([C@H](C)c3nnc4ccc(-c5cnn(C)c5)cn34)c(=O)c2c1
Reply | 10.8

Ask | Quick one: clearance for Cc1cc(-c2cc(F)c3nnc([C@@H](C)n4ccc5ncccc5c4=O)n3c2)on1 ?
Reply | 6.33

Numbers sourced from ChEMBL document CHEMBL3784965.
